Conditions: in acetone, 278.15 K
parameter: solubility (mole fraction)
# answer = number (no unit)

(Q) Give solubility (mole fraction) for the following compound: CC1CCC(=O)C1=O (stereo unspecified)
(A) 0.0937

====

Settings: in isopropanol, 303.15 K
parameter: solubility (mole fraction)
Form: value (number only, do not type unit).

(Q) Give reported solubility (mole fraction) value for CC1CCC(=O)C1=O (stereo unspecified)
(A) 0.13

====

Conditions: in methanol, 283.15 K
parameter: solubility (mole fraction)

(Q) # return recorded solubility (mole fraction) for input CC1CCC(=O)C1=O (stereo unspecified)
(A) 0.0629

====

Conditions: in n-butanol, 303.15 K
parameter: solubility (mole fraction)
# print the numeric value only

(Q) Give the reported solubility (mole fraction) for this molecule. CC1CCC(=O)C1=O (stereo unspecified)
(A) 0.105

Source listed as BigSolDB 2.1.
